Each record here notes measured Ki.
Target: human M4 receptor (Homo sapiens (Human), UniProt P08173)
Sequence (P08173 whole entry): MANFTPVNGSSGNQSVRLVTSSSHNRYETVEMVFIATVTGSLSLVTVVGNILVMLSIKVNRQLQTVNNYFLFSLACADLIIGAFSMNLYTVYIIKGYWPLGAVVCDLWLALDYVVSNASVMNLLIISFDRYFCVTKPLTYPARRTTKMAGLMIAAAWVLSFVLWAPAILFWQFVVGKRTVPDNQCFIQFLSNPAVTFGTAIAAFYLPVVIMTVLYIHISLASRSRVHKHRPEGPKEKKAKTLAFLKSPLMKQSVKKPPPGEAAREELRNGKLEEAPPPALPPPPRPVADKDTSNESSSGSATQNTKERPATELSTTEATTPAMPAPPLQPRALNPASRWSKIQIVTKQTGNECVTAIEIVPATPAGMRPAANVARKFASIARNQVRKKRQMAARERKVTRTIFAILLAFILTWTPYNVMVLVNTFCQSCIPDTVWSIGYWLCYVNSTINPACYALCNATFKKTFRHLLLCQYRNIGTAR
Assay: Radioligand (tritiated N-methylscopolamine) binding assay, M4
Settings: Ki against the M4 receptor; membranes from CHO cells expressing human M4; tritiated N-methylscopolamine 1.5 nM; read-out: Ki

C[C@@H]1CN(c2cnc3ccccc3c2)CCN1C(=O)NCCC1CCN(Cc2ccccc2)CC1 [4-40] | 10 to 100 nM
O=C(NCCC1CCN(Cc2ccccc2)CC1)C1CCN(c2ccc(C(F)(F)F)nc2)CC1 [10-68] | 100 to 1000 nM
C[C@@H]1CN(c2ccc(F)c(C#N)c2)CCN1C(=O)NCCC1(CO)CCN(Cc2ccccc2)CC1 [7-2] | 10 to 100 nM
C[C@@H]1CN(c2ccc(C#N)nn2)C[C@H](C)N1C(=O)NCCC1CCN(Cc2ccccc2)CC1 [23-3] | 10 to 100 nM
C[C@@H]1CN(c2cc(F)c(F)c(F)c2)CCN1C(=O)NCCN(C)[C@@H]1C[C@H](CO)N(Cc2ccccc2)C1 [7-13] | 100 to 1000 nM
O=C(NCCC1CCN(Cc2ccccc2)CC1)C1CCN(c2ccc(F)cc2)CC1 [10-35] | 10 to 100 nM

Returns the measured Ki for the input compound. Input: Cc1c(C(=O)NCCC2CCN(Cc3ccccc3)CC2)cnc2cc(-c3ccnc(F)c3)nn12 [18-20]
10 to 100 nM

Returns the measured Ki for the input compound. Input: Cc1cc(C(=O)NCC(C)C)nc(N2CCN(C(=O)NCCC3CCN(Cc4ccccc4)CC3)[C@H](C)C2)n1 [27-11]
10 to 100 nM

Returns the measured Ki for the input compound. Input: O=C(C1CCN(c2ccc(OC(F)(F)F)cc2)CC1)N(CCO)CCC1CCN(Cc2ccccc2)CC1 [9-3]
100 to 1000 nM
